I'd be grateful if you could share measured scaled lipid accumulation score for these entries.
test system: primary human hepatic stellate cells (donor 1); assay: scaled lipid accumulation score (0 = DMSO-like, 1 = nortriptyline-like); higher = stronger HSC inactivation (lipid re-accumulation), active = hit call of the paper; settings: library stock concentration: 400 uM; 48 h
Out of some 5,800 compounds screened, about 620 (11%) showed activity. This is one part of a sample in which actives are shown more often than they occur.

N#Cc1c(C2CCNCC2)cc(-c2c(O)cccc2OCC2CC2)nc1N ≤ -0.016 (inactive)
CN(C)CC(C)(C)CNc1nn2c(-c3ccccc3)nnc2cc1C1CCC1 ≤ -0.005 (inactive)
CC(=O)Nc1cccc(-n2c(=O)n(C3CC3)c(=O)c3c(Nc4ccc(I)cc4F)n(C)c(=O)c(C)c32)c1 ≤ -0.003 (inactive)

scaled lipid accumulation score for `O=C(c1ccc(C(=O)N2CCC(N3CCCC3)CC2)c(Nc2ccccc2)c1)N1CCC(N2CCCC2)CC1` is ≤ 0 (inactive)

---

system: primary human hepatic stellate cells (donor 1); test: scaled lipid accumulation score (0 = DMSO-like, 1 = nortriptyline-like); higher = stronger HSC inactivation (lipid re-accumulation), active = hit call of the paper; settings: library stock concentration: 80 uM; 48 h
In all, about 5,800 compounds went through this assay and about 620 (11%) showed activity. Many of the other results were omitted from the sample, so actives are more common in it than they were.
property_name: scaled lipid accumulation score

compound	experimental_value
COC(=O)/C=C/C(=O)N(O)CCCCNCc1ccc(COC(=O)Nc2cccc3ccccc23)cc1	≤ 0 (inactive)
C=C(C)[C@@H](CC=C(C)C)C[C@@]12C[C@@H](CC=C(C)C)C(C)(C)[C@@](CC=C(C)C)(C(=O)C(C(=O)c3ccc(O)c(O)c3)=C1O)C2=O	≤ 0 (inactive)
Oc1cccc(-c2nc(N3CCOCC3)c3oc4ncccc4c3n2)c1	0.118 (inactive)

// input: 8 compounds below; output: scaled lipid accumulation score for each
1. Cc1nc(Nc2ncc(C(=O)Nc3c(C)cccc3Cl)s2)cc(N2CCN(CCO)CC2)n1
2. Cc1c(CN2CCN(C(=O)[C@H](C)O)CC2)sc2c(N3CCOCC3)nc(-c3cnc(N)nc3)nc12
3. COc1cc(C)c(Sc2cnc(NC(=O)c3ccc(CNC(C)C(C)(C)C)cc3)s2)cc1C(=O)N1CCN(C(C)=O)CC1 (stereo not given)
4. Cc1cc(Nc2cc(N3CCN(C)CC3)nc(Sc3ccc(NC(=O)C4CC4)cc3)n2)n[nH]1
5. CC(C)n1cnc2c(NCc3ccccc3)nc(NCCCO)nc21
6. C=CC(=O)Nc1cc(-n2c(=O)ccc3cnc4ccc(-c5cn[nH]c5)cc4c32)ccc1C
7. COc1cccc2cc(-c3nc([C@H]4CC[C@H](C(=O)O)CC4)n4ncnc(N)c34)[nH]c12
8. NC(=O)c1cnc(N[C@@H]2CCCC[C@@H]2N)nc1Nc1cccc(-n2nccn2)c1

(A)
["≤ 0 (inactive)", "0.079 (inactive)", "≤ -0.009 (inactive)", "0.003 (inactive)", "≤ -0.001 (inactive)", "≤ 0 (inactive)", "≤ 0 (inactive)", "≤ 0 (inactive)"]

---

tested on: primary human hepatic stellate cells (donor 1); assay: scaled lipid accumulation score (0 = DMSO-like, 1 = nortriptyline-like); higher = stronger HSC inactivation (lipid re-accumulation), active = hit call of the paper; conditions: library stock concentration: 10 mM; 48 h
Hit rate of the full screen: of about 5,800 compounds, about 620 (11%) showed activity. What follows is part of a selection rich in actives, with near analogues and random picks from the rest.
I'd be grateful if you could share measured scaled lipid accumulation score for these entries.

compound	scaled lipid accumulation score
CC(C)[C@H](NC(=O)[C@H](CC(=O)O)NC(=O)[C@H](CCCCN)NC(=O)[C@@H](N)CCCN=C(N)N)C(=O)N[C@@H](Cc1ccc(O)cc1)C(=O)O	≤ 0 (inactive)
COc1cc(Nc2c(C#N)cnc3cc(OCCCN4CCN(C)CC4)c(OC)cc23)c(Cl)cc1Cl [Bosutinib (SKI-606)]	0.395 (inactive)

The record that follows has no scaled lipid accumulation score shown yet.
Entry COc1cc(CNC(=O)CCCC/C=C/C(C)C)ccc1O [Capsaicin] , tested on primary human hepatic stellate cells (donor 1), has a reported scaled lipid accumulation score of ≤ 0 (inactive)

---

I'd be grateful if you could share measured scaled lipid accumulation score for these entries.
system: primary human hepatic stellate cells (donor 1); assay: scaled lipid accumulation score (0 = DMSO-like, 1 = nortriptyline-like); higher = stronger HSC inactivation (lipid re-accumulation), active = hit call of the paper; details: library stock concentration: 400 uM; 48 h
The whole screen tested about 5,800 compounds, of which about 620 (11%) showed activity. Shown is part of a subset that was picked to be rich in actives.

Solved cases (3 shown):
OCCC#Cc1nc(-c2ccc(F)cc2)c(-c2ccncc2)n1CCCc1ccccc1 ≤ -0.005 (inactive)
O=C(O)Cc1c2ccccc2n2c1[nH]c(=O)c1ccccc12 ≤ -0.001 (inactive)
c1cc(-c2cnn3cc(-c4ccc(OCCN5CCCCC5)cc4)cnc23)ccn1 ≤ 0 (inactive)

// input: 6 compounds below; output: scaled lipid accumulation score for each
1. CC(=O)Nc1ccc([C@H](C)C(=O)Nc2ncc(C(C)C)s2)cc1
2. O=C(Nc1c[nH]nc1-c1nc2ccc(CN3CCOCC3)cc2[nH]1)NC1CC1
3. COc1cc(OC)c(/C=C/S(=O)(=O)Cc2ccc(OC)c(NCC(=O)O)c2)c(OC)c1
4. O=C1NC(=O)/C(=C/c2ccc(-c3ccc(F)cc3O)o2)S1
5. COc1ccc(S(=O)(=O)N(C(C)=O)c2ccccc2/C=C/c2cc[n+]([O-])cc2)cc1
6. Cc1cc(Nc2ncc(Cl)c(Nc3ccccc3S(=O)(=O)C(C)C)n2)c(OC(C)C)cc1C1CCNCC1

(A)
["≤ -0.005 (inactive)", "0.877 (active)", "≤ -0.016 (inactive)", "0.064 (inactive)", "≤ -0.016 (inactive)", "0.357 (inactive)"]

---

I'd be grateful if you could share measured scaled lipid accumulation score for these entries.
system: primary human hepatic stellate cells (donor 1); experiment: scaled lipid accumulation score (0 = DMSO-like, 1 = nortriptyline-like); higher = stronger HSC inactivation (lipid re-accumulation), active = hit call of the paper; details: library stock concentration: 3.33 mM; 48 h
Structures can show the parent of a compound that is named as a salt. About 620 (11%) of roughly 5,800 compounds showed activity. The entries come from a sample that favours actives as a whole.

compound	study_target	property_name	experimental_value
COc1ccnc2[nH]cc(C(=O)C(=O)N3CCN(C(=O)c4ccccc4)C[C@H]3C)c12	primary human hepatic stellate cells (donor 1)	scaled lipid accumulation score	≤ 0 (inactive)
CO[C@H]1C[C@@H]2CC[C@@H](C)[C@@](O)(O2)C(=O)C(=O)N2CCCC[C@H]2C(=O)O[C@H]([C@H](C)C[C@@H]2CC[C@@H](O)[C@H](OC)C2)CC(=O)[C@H](C)/C=C(\C)[C@@H](O)[C@@H](OC)C(=O)[C@H](C)C[C@H](C)/C=C/C=C/C=C/1C [Rapamycin]	primary human hepatic stellate cells (donor 1)	scaled lipid accumulation score	≤ 0 (inactive)
CC(C)C[C@H](NC(=O)CNC(=O)c1cc(Cl)ccc1Cl)B1OC(=O)CC(CC(=O)O)(C(=O)O)O1 (stereo partly specified)	primary human hepatic stellate cells (donor 1)	scaled lipid accumulation score	≤ 0 (inactive)

// input: 5 compounds below; output: scaled lipid accumulation score for each
1. C=C1CC[C@@H]2[C@](C)(CO)[C@H](O)CC[C@@]2(C)[C@@H]1C/C=C1/C(=O)OC[C@H]1O [Andrographolide]
2. CC(CCc1ccccc1)NCC(O)c1ccc(O)c(C(N)=O)c1 (stereo unspecified) [Labetalol HCl]
3. CNc1nc(Nc2cnn(C3CCN(C4COC4)CC3F)c2Cl)ncc1C(F)(F)F (stereo unspecified)
4. CN(C)CC=CC(=O)Nc1cc2c(Nc3ccc(F)c(Cl)c3)ncnc2cc1O[C@H]1CCOC1
5. CN1CCC(=C2c3ccccc3CCc3sccc32)CC1 [Pizotifen Malate]

(A)
1. 0.094 (inactive)
2. ≤ 0 (inactive)
3. ≤ -0.009 (inactive)
4. 1.12 (active)
5. 0.473 (inactive)

---

system: primary human hepatic stellate cells (donor 1); experiment: scaled lipid accumulation score (0 = DMSO-like, 1 = nortriptyline-like); higher = stronger HSC inactivation (lipid re-accumulation), active = hit call of the paper; settings: library stock concentration: 10 mM; 48 h
Counter-ions that a name gives are not always drawn. Hit rate of the full screen: of about 5,800 compounds, about 620 (11%) showed activity.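 Rule for the calls: active = score above a cut-off or among the top three wells of a plate; in these data no inactive exceeds 0.85.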 The entries come from a sample that favours actives as a whole.
Hi! Could you answer with just one of these? Yes (active), No (inactive)

compound	classification
Cc1cc(NC2CCCCC2)nc(-n2nc(C)cc2C)n1	No

(Q) Assay result, entry `CC(C)c1cc(C(C)C)c(CC(=O)NS(=O)(=O)Oc2c(C(C)C)cccc2C(C)C)c(C(C)C)c1` — outcome?
(A) No

(Q) Assay result, entry `Cc1cc(NC(=O)c2cccc(NC(=O)C=CCN(C)C)c2)ccc1Nc1nccc(-c2cccnc2)n1` — outcome?
(A) Yes

(Q) Assay result, entry c1cc2c(cc1C1CCCCC1)c1c3n2CCNC3CCC1 (stereo not drawn) [Tetrindole mesylate] — outcome?
(A) No

(Q) Assay result, entry `O=C1CC(=O)c2c(Cl)c(Cl)c(Cl)c(Cl)c21` — outcome?
(A) No

(Q) Assay result, entry `C[C@@H](O)CN(CCN(C[C@@H](C)O)C[C@@H](C)O)C[C@@H](C)O` — outcome?
(A) No

(Q) Assay result, entry COc1cc2/c(=N/c3ccc(Br)cc3F)nc[nH]c2cc1OCC1CCN(C)CC1 [Vandetanib (ZD6474)] — outcome?
(A) No

(Q) Assay result, entry `C=CC(=O)N1CCC(Oc2cc3c(Nc4ccc(Cl)c(Cl)c4F)ncnc3cc2OC)CC1` — outcome?
(A) No

(Q) Assay result, entry CN1CCc2c(c3ccccc3n2Cc2ccc(C(=O)NO)cc2)C1 [Tubastatin A HCl] — outcome?
(A) No

(Q) Assay result, entry `O=C(CCc1ccc(O)cc1)c1c(O)cc(O)cc1O[C@@H]1O[C@H](CO)[C@@H](O)[C@H](O)[C@H]1O` — outcome?
(A) No

(Q) Assay result, entry `COc1c(C)cnc(Cn2cnc3c(Cl)nc(N)nc32)c1C` — outcome?
(A) No

(Q) Assay result, entry `CC(=O)Nc1ncc([N+](=O)[O-])s1` — outcome?
(A) No

(Q) Assay result, entry CC(=O)Nc1ncc([N+](=O)[O-])s1 [Nithiamide] — outcome?
(A) No
